Test system: Plasmodium berghei
Assay: Screen against P. berghei liver stage (PbLuc), transformed with Luciferase, at 10uM
Format: functional, HepG2
Conditions: tested at 10 uM
Among all 69,000 compounds or so, about 8,600 (12%) showed an effect of 50% or more. The full list was thinned out, with strong results kept by preference.
Classification field: yes (1) = INHIBITION at or over 30%; no (0) = INHIBITION under 30%.

Prompt: Quick check, INHIBITION >= 30%? "O=C(c1ccc(S(=O)(=O)NCCc2ccncc2)cc1)N1CCCC1"
Response: yes (1)

Prompt: Now the compound "CCOC1CCN(C(=O)Nc2ccc(=O)n(C)c2)CC1"
Response: yes (1)

Prompt: Now the compound "CC(=O)N1CCC(n2ccc(-c3cnc(N4CCOCC4)nc3)n2)CC1"
Response: no (0)

Prompt: Now the compound "O=C(c1ccc(S(=O)(=O)NCc2ccncc2)cc1)N1CCNCC1"
Response: no (0)

Prompt: Now the compound "COCC(=O)N1CC[C@]2(O)CCN(C(=O)CCc3ccsc3)C[C@@H]2C1"
Response: no (0)
